What viability, T/C was measured for each of the following?
- Test system: 422866-222-R5-J1-PDC spheroids with HUVEC/MSC, viability
- assay details: Anticancer human tumor 422866-222-R5-J1-PDC patient-derived pancreatic adenocarcinoma cell line growth inhibition [GQUAD]
- details: second compound 0.1 µM; first compound 0.316 µM; hits give low values
// note: answer is a bare numeric in %

Record O=c1[nH]cc(F)c(=O)[nH]1 + CN(C)c1ccc(Nc2c3ccc(NC(=O)CCN4CCCC4)cc3nc3cc(NC(=O)CCN4CCCC4)ccc23)cc1 . Reported viability, T/C: 104

Measured viability, T/C, O=c1[nH]cc(F)c(=O)[nH]1 + Cc1[nH]c2ccc(F)cc2c1-c1nc2c3cccnc3c3ncccc3c2[nH]1 : 105

Recorded viability, T/C (molecule COc1ncnc(C2CC2)c1-c1ncc2cnn(Cc3ccc(-c4nc(C(F)(F)F)cn4C(C)C)cc3)c2n1 + Cc1[nH]c2ccc(F)cc2c1-c1nc2c3cccnc3c3ncccc3c2[nH]1 ): 110

Item: COc1ccc([C@@H](O)c2cc(-c3ncnc4cc(N5CCOCC5)ccc34)c(F)cc2Cl)nn1 + CN(C)c1ccc(Nc2c3ccc(NC(=O)CCN4CCCC4)cc3nc3cc(NC(=O)CCN4CCCC4)ccc23)cc1 | viability, T/C: 79.1

Documented viability, T/C of O=C(NO)c1cnc(N2CCN(S(=O)(=O)c3ccc4ccccc4c3)CC2)nc1 + CN(C)c1ccc(Nc2c3ccc(NC(=O)CCN4CCCC4)cc3nc3cc(NC(=O)CCN4CCCC4)ccc23)cc1 : 89.8

viability, T/C in this record for CC(C)(O)C1CCC(Nc2ccc3ncc(-c4cccc(C(F)(F)F)c4)n3n2)CC1 (stereo unspecified) + Cc1[nH]c2ccc(F)cc2c1-c1nc2c3cccnc3c3ncccc3c2[nH]1 : 64.7

* * *

- System: 422866-222-R5-J1-PDC spheroids with HUVEC/MSC, viability
- assay details: Anticancer human tumor 422866-222-R5-J1-PDC cell line growth inhibition [GQUAD];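 note: spheroids exposed to compounds for seven days before reading; percent viability relative to DMSO vehicle control taken as 100%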
- details: second compound 0.316 µM; first compound 3.16 µM; hits give low values
Provide the recorded viability, T/C for the entries that follow.
Expressed in %, but write only the number.

Lab note: Cc1cccc(N(C)C(=O)C2C(O)CCN2c2nc(C)cc(C(F)(F)F)c2C#N)c1 (stereo unspecified) + Cc1[nH]c2ccc(F)cc2c1-c1nc2c3cccnc3c3ncccc3c2[nH]1 gave viability, T/C of 115

# molecule Nc1ccn(C2OC(CO)C(O)C2(F)F)c(=O)n1 (stereo unspecified) + Cc1cnc(CNC(=O)c2c(=O)c3ccc(N4CCCN(C)CC4)nc3n3c2sc2ccccc23)cn1 ; its viability, T/C = 54.1

CC(=O)O[C@H]1C(=O)[C@@]2(C)[C@H]([C@H](OC(=O)c3ccccc3)[C@]3(O)C[C@H](OC(=O)[C@H](O)[C@@H](NC(=O)c4ccccc4)c4ccccc4)C(C)=C1C3(C)C)[C@]1(OC(C)=O)CO[C@@H]1C[C@@H]2O + CN(C)c1ccc(Nc2c3ccc(NC(=O)CCN4CCCC4)cc3nc3cc(NC(=O)CCN4CCCC4)ccc23)cc1 yielded viability, T/C of 77.2

Kindly note the recorded viability, T/C for COc1ncnc(C2CC2)c1-c1ncc2cnn(Cc3ccc(-c4nc(C(F)(F)F)cn4C(C)C)cc3)c2n1 + Cc1[nH]c2ccc(F)cc2c1-c1nc2c3cccnc3c3ncccc3c2[nH]1 , which is 66.3

According to the records, this molecule CC(C)(O)C1CCC(Nc2ccc3ncc(-c4cccc(C(F)(F)F)c4)n3n2)CC1 (stereo unspecified) + Cc1[nH]c2ccc(F)cc2c1-c1nc2c3cccnc3c3ncccc3c2[nH]1 displays viability, T/C of 36.5

Looking up O=c1[nH]cc(F)c(=O)[nH]1 + CN(C)c1ccc(Nc2c3ccc(NC(=O)CCN4CCCC4)cc3nc3cc(NC(=O)CCN4CCCC4)ccc23)cc1 , I see its viability, T/C listed as 67.3

Per the record, Cc1cccc(N(C)C(=O)C2C(O)CCN2c2nc(C)cc(C(F)(F)F)c2C#N)c1 (stereo unspecified) + Cc1cnc(CNC(=O)c2c(=O)c3ccc(N4CCCN(C)CC4)nc3n3c2sc2ccccc23)cn1 has viability, T/C of 85.3

viability, T/C reported for this molecule O=C(c1cc(Cc2n[nH]c(=O)c3ccccc23)ccc1F)N1CCN(C(=O)C2CC2)CC1 + Cc1[nH]c2ccc(F)cc2c1-c1nc2c3cccnc3c3ncccc3c2[nH]1 : 87.4

Entry COc1cccc2c1C(=O)c1c(O)c3c(c(O)c1C2=O)CC(O)(C(=O)CO)CC3OC1CC(N)C(O)C(C)O1 (stereo unspecified) + CN(C)c1ccc(Nc2c3ccc(NC(=O)CCN4CCCC4)cc3nc3cc(NC(=O)CCN4CCCC4)ccc23)cc1 , viability, T/C reported as 37.8

Value of measured viability, T/C for the entry CC1COCCN1c1cc(-c2ccnn2C)c2ccnc(-c3ccn[nH]3)c2n1 (stereo unspecified) + Cc1cnc(CNC(=O)c2c(=O)c3ccc(N4CCCN(C)CC4)nc3n3c2sc2ccccc23)cn1 : 50.9

get_value(item= CC1COCCN1c1cc(C2(S(C)(=N)=O)CC2)nc(-c2ccnc3[nH]ccc23)n1 (stereo unspecified) + Cc1cnc(CNC(=O)c2c(=O)c3ccc(N4CCCN(C)CC4)nc3n3c2sc2ccccc23)cn1 , readout=viability, T/C) returns 77.4

Lab book: viability, T/C of C=CCn1c(=O)c2cnc(Nc3ccc(N4CCN(C)CC4)cc3)nc2n1-c1cccc(C(C)(C)O)n1 + Cc1[nH]c2ccc(F)cc2c1-c1nc2c3cccnc3c3ncccc3c2[nH]1 noted as 202

The measured viability, T/C associated with COc1cc(C2c3cc4c(cc3C(OC3OC5COC(C)OC5C(O)C3O)C3COC(=O)C23)OCO4)cc(OC)c1O (stereo unspecified) + Cc1cnc(CNC(=O)c2c(=O)c3ccc(N4CCCN(C)CC4)nc3n3c2sc2ccccc23)cn1 reads 71.8

Briefly, viability, T/C measured for CC1COCCN1c1cc(C2(S(C)(=N)=O)CC2)nc(-c2ccnc3[nH]ccc23)n1 (stereo unspecified) + CN(C)c1ccc(Nc2c3ccc(NC(=O)CCN4CCCC4)cc3nc3cc(NC(=O)CCN4CCCC4)ccc23)cc1 : 60.3

So for CC(C)(O)C1CCC(Nc2ccc3ncc(-c4cccc(C(F)(F)F)c4)n3n2)CC1 (stereo unspecified) + CN(C)c1ccc(Nc2c3ccc(NC(=O)CCN4CCCC4)cc3nc3cc(NC(=O)CCN4CCCC4)ccc23)cc1 , the logged viability, T/C turned out to be 41.3

Measured viability, T/C, CC1COCCN1c1cc(C2(S(C)(=N)=O)CC2)nc(-c2ccnc3[nH]ccc23)n1 (stereo unspecified) + Cc1[nH]c2ccc(F)cc2c1-c1nc2c3cccnc3c3ncccc3c2[nH]1 : 56.2

Field viability, T/C (entry CC1COCCN1c1cc(C2(O)CC3CCC(C2)O3)c2cnn(-c3ccn[nH]3)c2n1 (stereo unspecified) + CN(C)c1ccc(Nc2c3ccc(NC(=O)CCN4CCCC4)cc3nc3cc(NC(=O)CCN4CCCC4)ccc23)cc1 ) reads 94.1

Item: COc1ccc([C@@H](O)c2cc(-c3ncnc4cc(N5CCOCC5)ccc34)c(F)cc2Cl)nn1 + Cc1[nH]c2ccc(F)cc2c1-c1nc2c3cccnc3c3ncccc3c2[nH]1 | viability, T/C: 51.3

Input CC(=O)O[C@H]1C(=O)[C@@]2(C)[C@H]([C@H](OC(=O)c3ccccc3)[C@]3(O)C[C@H](OC(=O)[C@H](O)[C@@H](NC(=O)c4ccccc4)c4ccccc4)C(C)=C1C3(C)C)[C@]1(OC(C)=O)CO[C@@H]1C[C@@H]2O + Cc1cnc(CNC(=O)c2c(=O)c3ccc(N4CCCN(C)CC4)nc3n3c2sc2ccccc23)cn1 . Output viability, T/C: 115

Documented viability, T/C of CC(C)n1c(=O)n(C)c2cnc3cc(F)c(-c4ccc(OCCCN5CCCCC5)nc4)cc3c21 + Cc1cnc(CNC(=O)c2c(=O)c3ccc(N4CCCN(C)CC4)nc3n3c2sc2ccccc23)cn1 : 90.8

Summary for this molecule, O=c1[nH]cc(F)c(=O)[nH]1 + Cc1[nH]c2ccc(F)cc2c1-c1nc2c3cccnc3c3ncccc3c2[nH]1 : viability, T/C is 82.6

* * *

I'd appreciate it if you could supply viability, T/C values for the items below.
- Test system: 422866-222-R5-J1-PDC spheroids with HUVEC/MSC, viability
- assay details: Anticancer human tumor 422866-222-R5-J1-PDC cell line growth inhibition [GQUAD];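 note: spheroids exposed to compounds for seven days before reading; percent viability relative to DMSO vehicle control taken as 100%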
- details: second compound 0.316 µM; first compound 0.00999 µM; hits give low values
# value in %; strip the unit string

Looking up CCc1c2c(nc3ccc(O)cc13)-c1cc3c(c(=O)n1C2)COC(=O)[C@]3(O)CC + CN(C)c1ccc(Nc2c3ccc(NC(=O)CCN4CCCC4)cc3nc3cc(NC(=O)CCN4CCCC4)ccc23)cc1 , I see its viability, T/C listed as 46.4

Entry CCc1c2c(nc3ccc(O)cc13)-c1cc3c(c(=O)n1C2)COC(=O)[C@]3(O)CC + Cc1[nH]c2ccc(F)cc2c1-c1nc2c3cccnc3c3ncccc3c2[nH]1 — recorded viability, T/C = 39.5

Entry CC[C@@]1(O)C(=O)OCc2c1cc1n(c2=O)Cc2cc3c(CN(C)C)c(O)ccc3nc2-1 + Cc1[nH]c2ccc(F)cc2c1-c1nc2c3cccnc3c3ncccc3c2[nH]1 — recorded viability, T/C = 85.5

For Cc1[nH]c2ccccc2c1CCNCc1ccc(/C=C/C(=O)NO)cc1 + CN(C)c1ccc(Nc2c3ccc(NC(=O)CCN4CCCC4)cc3nc3cc(NC(=O)CCN4CCCC4)ccc23)cc1 the compound record lists viability, T/C as 98.7

The compound CC[C@@]1(O)C(=O)OCc2c1cc1n(c2=O)Cc2cc3c(CN(C)C)c(O)ccc3nc2-1 + Cc1cnc(CNC(=O)c2c(=O)c3ccc(N4CCCN(C)CC4)nc3n3c2sc2ccccc23)cn1 showed viability, T/C equal to 87.3

# viability, T/C (compound: Cn1ncnc1[C@H]1c2n[nH]c(=O)c3cc(F)cc(c23)N[C@@H]1c1ccc(F)cc1 + Cc1cnc(CNC(=O)c2c(=O)c3ccc(N4CCCN(C)CC4)nc3n3c2sc2ccccc23)cn1 ) is 87.4

viability, T/C measured on Cc1[nH]c2ccccc2c1CCNCc1ccc(/C=C/C(=O)NO)cc1 + Cc1[nH]c2ccc(F)cc2c1-c1nc2c3cccnc3c3ncccc3c2[nH]1 = 121
